Ref: ChEMBL document CHEMBL1201862

# Tested on: RXF 631
# procedure-text: NCI tumour cell line growth inhibition, 48 h
Activity calls are given as the source filed them. Cut-off read from the data, not from the text of the source: active = GI50 up to about 1.1 µM and inactive = higher.
parameter: GI50

# count of solved cases: 6
COCCCNC(=O)C1C(=O)C(=O)N(CCCOC)C1=O (stereo not drawn)
> 100 µM (inactive)
O=c1[nH]c2cc(-c3ccccc3)nc-2nn1-c1c(Cl)cc(Cl)cc1Cl
46 µM (inactive)
CC(C)C(=O)NS(=O)(=O)c1ccccc1
> 100 µM (inactive)
N#Cc1c(-c2ccco2)cc(-c2ccccc2)nc1O
> 100 µM (inactive)
CCc1cccc(C(C)C)c1NC(=O)C(=O)C(CC(=O)Nc1ccc(Cl)c(Cl)c1)C(=O)OC (stereo not drawn)
> 100 µM (inactive)
N=C(N)N/N=C(/CC1OC(=O)c2ccccc21)c1ccc2ccccc2c1 (stereo not drawn)
21.4 µM (inactive)

Would you mind giving GI50 for every molecule in the list below?
1. Cc1nc(-c2nc(C)c(C(=O)/C=C/c3ccc(N(C)C)cc3)s2)sc1C(=O)/C=C/c1ccc(N(C)C)cc1
2. COc1cc(Cl)c2c3c(c(C(C)=O)oc13)CCC2

1: > 100 µM (inactive); 2: > 100 µM (inactive)

###

# System: 786-0
# procedure-text: NCI tumour cell line growth inhibition, 48 h
Activity calls are given as the source filed them. Rule as the data show it: active = GI50 up to about 1.1 µM and inactive = higher.
parameter: GI50

Below are worked cases with known answers.
Nc1nc(Cl)cc(NCC2(CO)CCC(O)C2)n1 (configuration not stated)
> 100 µM (inactive)
CCC12C=CCN3CC[C@]4(C(=C(C(=O)OC)[C@@H]1Nc1ccn(C5OC(COC(C)=O)C(OC(C)=O)C5OC(C)=O)c(=O)n1)Nc1ccccc14)C32 (some centres not stated)
4.54 µM (inactive)
O=c1[nH]c2ccc(Cl)cc2o1
> 100 µM (inactive)
C[P+](c1ccccc1)(c1ccc(Cl)cc1)c1ccc(Cl)cc1
31.3 µM (inactive)
CCOC(=O)/C(=C\c1cccc(C)c1)C(C)=O
13.6 µM (inactive)

Please look at the items below and tell me GI50 for each one, in order.
1. CC12CC(=O)C3C(CCC4=CC(=O)CCC43C)C1CC=C2CC(=O)O (configuration not stated)
2. Cn1c(CO)ccc1-c1ccc(-c2ccc[se]2)[se]1
3. COc1cc(CNC(=S)CCCCCCCCCCC(C)C)ccc1O
4. O=C1CC(c2ccco2)C2(C(=O)NC(=O)NC2=O)C(c2ccco2)C1 (configuration not stated)
5. Cc1ccccc1NC(=O)/C(C#N)=N\Nc1[nH]cnc1C(N)=O
6. Cc1c2c(n3c(nc4ccccc43)c1C#N)NCC2
7. O=c1[nH]c2cc(-c3ccccc3)nc-2nn1-c1c(Cl)cc(Cl)cc1Cl

1. > 100 µM (inactive)
2. 29.1 µM (inactive)
3. 63.5 µM (inactive)
4. > 75 µM (inactive)
5. 19.3 µM (inactive)
6. > 10 µM (inactive)
7. 30.8 µM (inactive)

###

Exercise: for every item that follows, state its recorded GI50.
# Test system: RPMI-8226
# procedure-text: NCI tumour cell line growth inhibition, 48 h
Calls of active or inactive are those of the source. Rule as the data show it: active = GI50 up to about 1.1 µM and inactive = higher.

Use these answered entries as a reference point.
CCCCCCCCC[C@@H]1C[C@@H]2CCC3C(C(=O)OC)=C(C)N=C(N1)N32 (stereo not given in full)
6 µM (inactive)
c1ccc(CSC2(SCc3ccccc3)CCCCC2)cc1
> 10 µM (inactive)
Cc1ccc([S+](c2ccccc2)c2cc(C)ccc2C)cc1 (stereo not given)
3.66 µM (inactive)
COC(=O)C1=C(C(=O)OC)SC(=CC#CC=C2SC(C(=O)OC)=C(C(=O)OC)S2)S1
> 100 µM (inactive)

We now examine a further molecule.
Report measured GI50 on RPMI-8226; entry: Cc1nc(-n2nc(-c3ccccc3)cc2-c2ccccc2)sc1C(/C=C/c1ccc([N+](=O)[O-])cc1)=N/NC(=O)c1ccncc1
7.16 µM (inactive)

###

# Tested on: SNB-19
# procedure-text: NCI tumour cell line growth inhibition, 48 h
Activity calls are given as the source filed them. No stated cut-off is given here; in the data, active = GI50 up to about 1.1 µM and inactive = higher.
Lab note: assign the record to one of active, inactive

CCCCn1c(C)c(C(=O)OCC)s/c1=N/Nc1nc2ccccc2nc1-c1ccccc1
inactive
COc1cc(Cl)c2c3c(c(C(C)=O)oc13)CCC2
inactive
Cc1cc(Cl)ccc1OCC(=O)Oc1c(Cl)c(Cl)c(Cl)c(Cl)c1Cl
inactive
CC1OC(OC2C(O[C@H]3CC[C@@]4(C)C(=CC[C@H]5[C@@H]6C[C@@H]7O[C@]8(CC[C@@H](C)CO8)[C@@H](C)[C@@H]7[C@@]6(C)CC[C@@H]54)C3)OC(CO)C(O)C2OC2OC(CO)C(O)C(O)C2O)C(O)C(O)C1O (stereo partly specified)
inactive
O=C1/C(=C/c2ccc(O)c(O)c2)CC/C1=C\c1ccc(O)c(O)c1
inactive
Cc1ccc([S+](c2ccccc2)c2cc(C)ccc2C)cc1 (stereo unspecified)
inactive
NNC(=O)c1cc([N+](=O)[O-])ccc1NC(=O)C12CC3CC(CC(C3)C1)C2
inactive
COc1cc(/C=C2\CCC(C)C3C2=NN(C(C)=O)C3c2cc(OC)c(OC)c(OC)c2)cc(OC)c1OC (stereo unspecified)
inactive

Please indicate how the test categorized COc1ccc(NC(C)=O)c(C(O)CCNC(C)=O)c1 (stereo unspecified) .
inactive

Short answer needed: outcome of this test for N#C/C(=C/N1C(=O)/C(=C/c2ccc([N+](=O)[O-])cc2)SC1=S)c1nc2ccccc2s1 ?
inactive

###

Kindly state GI50 for each of the entries shown.
# Test system: LXFL 529
# procedure-text: NCI tumour cell line growth inhibition, 48 h
Activity calls are given as the source filed them. Rule as the data show it: active = GI50 up to about 1.1 µM and inactive = higher.

Worked cases, answers included:
Oc1cc2cc(-c3ccccc3)[nH]c2c2ccccc12
24.5 µM (inactive)
N#CC1(C#N)C2(c3ccccc3)OC(c3ccccc3)(c3cc4ccccc4cc32)C1(C#N)C#N
1.62 µM (inactive)
CCOC(=O)C1=C(Nc2cccc3ccccc23)OCC1=O
> 100 µM (inactive)
C[C@]12Cc3cn[nH]c3C(=O)C1CC[C@@H]1C2CC[C@@]2(C)C1CC[C@]2(C)O (some centres not stated)
> 100 µM (inactive)
COc1ccc2c3c(coc13)C(CCC(=O)O)CC2 (configuration not stated)
> 100 µM (inactive)
CN1C(=O)n2c(nc3ccccc32)C(N=[N+]=[N-])(N=[N+]=[N-])C1=O (configuration not stated)
> 100 µM (inactive)
COc1cc(Cl)c2c3c(c(C(C)=O)oc13)CCC2
> 100 µM (inactive)
Cc1nc(-c2nc(C)c(C(=O)/C=C/c3ccc(N(C)C)cc3)s2)sc1C(=O)/C=C/c1ccc(N(C)C)cc1
34.8 µM (inactive)

Here are 7 compounds. What values of GI50 were reported for them?
1. O=C(NN1C(=O)C(Cl)C1c1cccc(O)c1)c1ccccc1O (configuration not stated)
2. CC(=O)NC(CCCN(Cc1ccccc1)C(=O)NCCCl)C(=O)NCc1ccccc1 (configuration not stated)
3. O=C1C=CC(=O)c2nc3c(cc21)CCC3
4. CCCCCCC(=O)C/C(CCC(=O)N(Cc1ccccc1)Cc1ccccc1)=N\Nc1ccc([N+](=O)[O-])cc1[N+](=O)[O-]
5. C=C=C(C(=O)OC)[S+]([O-])c1ccccc1[N+](=O)[O-] (configuration not stated)
6. COC(=O)Cc1nn2c(nc1=O)sc1ccc3ccccc3c12
7. COc1c2nc(CCl)[nH]c(=O)c2c(OC)c2nc(CCl)[nH]c(=O)c12

1: > 100 µM (inactive); 2: > 100 µM (inactive); 3: 15.5 µM (inactive); 4: 31 µM (inactive); 5: > 100 µM (inactive); 6: > 100 µM (inactive); 7: > 100 µM (inactive)

Dear reader, for each entry below, please note its GI50.
1. O=C1C=CC2(C=C1)C[C@H](NC(=O)C(F)(F)F)C(=O)O2
2. O=C(CSc1nc(=O)c(-c2ccccc2NC(=O)C(F)(F)F)n[nH]1)NC(=O)Nc1ccccc1

1. 23.7 µM (inactive)
2. 79.6 µM (inactive)

###

# Test system: ACHN
# procedure-text: NCI tumour cell line growth inhibition, 48 h
Activity calls are given as the source filed them. No stated cut-off is given here; in the data, active = GI50 up to about 1.1 µM and inactive = higher.
Would you mind answering with one of these outcomes? active, inactive

CN(C)CCNC(=O)c1cccc2ccc(-c3ccncc3)nc12
inactive
COC1(OC)CC2C=C(S(=O)(=O)c3ccccc3)C1N(Cc1ccccc1)C2=O (stereo not drawn)
inactive
NC(=O)NC(=O)c1cccc(NC(=O)CI)c1
active

Test call, this compound: Cc1ccc([S+](c2ccccc2)c2cc(C)ccc2C)cc1 (stereo not drawn)
inactive

For O=C(OC1C=C=CS(=O)(=O)CC#C/C=C\1)c1cnc2ccccc2n1 (stereo not drawn) , which call appears in the assay record?
inactive

Test call, this compound: COc1cc2c(cc1O)C(=O)O[C@@H]1CC=C3CCN(C)[C@H]3[C@H]21
inactive

Recorded test call requested for O=S(=O)(c1cc(Cl)ccc1Cl)N1CCN(S(=O)(=O)c2cc(Cl)ccc2Cl)CC1
inactive

Tell me the assay call for O=C1C(Cl)=C(N2CCN(c3ccccn3)CC2)C(=O)c2ncccc21 please.
inactive

Please share the test call associated with OCCCCn1cc(Cn2ncc3c(SCc4ccccc4)ncnc32)nn1 .
inactive

Which outcome did this test record for the compound COc1cccc2c1C(=O)c1c(O)c3c(c(O)c1C2=O)CC(O)(C(O)CO)CC3OC1CC2C(OC3COCC(C#N)N32)C(C)O1 (stereo not drawn) ?
active

Query: recorded result category for COC(=O)C12CCCN1CCC2 in this test
inactive
